- Tested on: Leukemia L1210
- Protocol Details: Activity against Leukemia L1210, intraperitoneal, increase in life span of mice
- Type: in vivo, female mice (BDF1 family)
- Measurement Setup: ip; O.D./ILS30
- Experimental: Tests were conducted in accordance with the method for measuring antitumor activity of National Cancer Center Tokyo (A, Hoshi et al, Farumashia 9 464 (1973)). […] An increase percentage of life span (ILS%) was calculated from said average survival days compared with those of the control group. […]

>  <Compound>
COCCCOC1OC(CO)C(O)C(O)C1N(CC(C)C)C(=O)N(CCCl)N=O (stereo not drawn)

>  <Therapeutic ratio TR>
38.4

$$$$
>  <Compound>
CCCCO[C@H]1O[C@H](CN(CCCC)C(=O)N(CCCl)N=O)[C@@H](O)[C@H](O)[C@H]1O

>  <Therapeutic ratio TR>
40.0

$$$$
>  <Compound>
Cc1ccc(CN(C[C@H]2O[C@H](OCC(C)C)[C@H](O)[C@@H](O)[C@H]2O)C(=O)N(CCCl)N=O)cc1

>  <Therapeutic ratio TR>
28.4

$$$$
>  <Compound>
CCCCCCN(C[C@H]1O[C@H](OCCCC)[C@H](O)[C@@H](O)[C@@H]1O)C(=O)N(CCCl)N=O

>  <Therapeutic ratio TR>
26.9

$$$$
>  <Compound>
COCCCN(C(=O)N(CCCl)N=O)[C@@H]1CO[C@H](OC2CCCCC2)[C@@H](O)[C@@H]1O

>  <Therapeutic ratio TR>
58.1

$$$$
>  <Compound>
O=NN(CCCl)C(=O)N(C1CCCCC1)C1C(OCC2CCCO2)OC(CO)C(O)C1O (stereo not drawn)

>  <Therapeutic ratio TR>
43.6

$$$$
